Molecular target: CDC7/DBF4 (Cell division cycle 7-related protein kinase/Activator of S phase kinase) (Homo sapiens, UniProt O00311)
Sequence (Q9UBU7 whole entry): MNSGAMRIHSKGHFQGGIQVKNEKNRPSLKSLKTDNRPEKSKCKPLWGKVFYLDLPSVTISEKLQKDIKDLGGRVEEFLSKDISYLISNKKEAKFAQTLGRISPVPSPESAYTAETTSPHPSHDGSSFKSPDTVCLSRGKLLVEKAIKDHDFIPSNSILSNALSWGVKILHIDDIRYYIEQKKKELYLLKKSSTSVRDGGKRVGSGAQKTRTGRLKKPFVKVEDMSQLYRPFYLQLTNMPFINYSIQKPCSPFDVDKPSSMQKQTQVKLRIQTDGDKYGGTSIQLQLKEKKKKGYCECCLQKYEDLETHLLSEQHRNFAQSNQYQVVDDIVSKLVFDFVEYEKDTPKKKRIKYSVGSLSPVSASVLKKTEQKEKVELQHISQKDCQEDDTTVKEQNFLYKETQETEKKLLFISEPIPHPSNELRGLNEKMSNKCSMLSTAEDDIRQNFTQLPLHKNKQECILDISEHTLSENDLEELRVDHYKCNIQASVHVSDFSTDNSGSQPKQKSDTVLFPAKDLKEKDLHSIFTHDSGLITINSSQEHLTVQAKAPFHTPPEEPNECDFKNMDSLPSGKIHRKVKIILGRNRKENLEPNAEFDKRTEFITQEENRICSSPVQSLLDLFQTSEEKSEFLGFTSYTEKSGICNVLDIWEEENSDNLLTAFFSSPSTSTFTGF
Sequence (O00311 whole entry): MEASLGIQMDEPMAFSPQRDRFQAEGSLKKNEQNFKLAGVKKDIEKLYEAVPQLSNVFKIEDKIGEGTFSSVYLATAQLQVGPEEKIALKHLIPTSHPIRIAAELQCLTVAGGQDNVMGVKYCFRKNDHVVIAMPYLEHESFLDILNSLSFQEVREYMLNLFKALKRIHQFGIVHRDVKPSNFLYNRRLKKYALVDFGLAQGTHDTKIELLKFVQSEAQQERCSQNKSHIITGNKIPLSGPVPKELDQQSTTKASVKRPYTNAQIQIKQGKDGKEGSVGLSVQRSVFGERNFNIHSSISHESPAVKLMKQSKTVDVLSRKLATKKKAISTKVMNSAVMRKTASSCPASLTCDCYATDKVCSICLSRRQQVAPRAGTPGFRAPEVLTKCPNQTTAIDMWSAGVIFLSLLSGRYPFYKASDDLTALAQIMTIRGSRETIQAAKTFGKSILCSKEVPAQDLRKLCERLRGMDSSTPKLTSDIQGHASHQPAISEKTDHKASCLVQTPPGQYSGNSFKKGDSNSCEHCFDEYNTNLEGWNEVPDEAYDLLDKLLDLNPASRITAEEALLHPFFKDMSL
Assay: Biochemical Assay: Biochemical assay was tested in the U-shaped bottom 384 plate (corning, #4514) with a final volume of […] at 27° C. The concentration of CDC7 was optimized by the enzyme titration experiment. CDC7 kinase was diluted in assay buffer (40 mM Tris.HCl pH 7.25, 100 ug/mL BSA, and 20 mM MgCl2) to get 2.4× enzyme solutions. Compounds were dissolved in 10 mM DMSO, and series diluted in DMSO from 0.3 mM to 0.3 nM (5 concentration pts); All dilutions were diluted 30× in assay buffer to get 6× compounds solutions. MCM2 Substrate and ATP were diluted to 2.4× mixed solution. Add 2 ul test compound solution to 384 assay plate, then add 5 ul substrate/ATP mixed solution, at last add 5 ul enzyme solution, incubate at 27° C. for 180 mins. Transfer 5 ul reaction solution to another 384 assay plate, then add 5 ul ADP-Glo™ Reagent (Promega) to each well and incubate at 27° C. for 40 mins; Add 10 ul Kinase Detection Reagent (Promega) to each well and incubate at 27° C. for 30 mins. 10 uM CDC7-3 compound was used as 100% inhibition while 100% DMSO control was used as 0% inhibition. Each test has three replications at least.
pIC50: −log10 of the molar value.
Measured pIC50, listed per entry for reference.
quantityName: pIC50

# smilesRepresentation, quantityName, dataValue
data = [
    ("Cc1cc(-c2cc3nc([C@@H](N)C(C)C)[nH]c(=O)c3s2)ccn1", "pIC50", "> 6.00"),
    ("CC(C)[C@H](N)c1nc2cc(-c3ccnc(Cl)c3)sc2c(=O)[nH]1", "pIC50", "> 6.00"),
    ("CC[C@H](N)c1nc2cc(-c3ccnc(F)c3)sc2c(=O)[nH]1", "pIC50", "> 6.00"),
    ("CN[C@H](c1nc2cc(-c3ccnc(F)c3)sc2c(=O)[nH]1)C(C)C", "pIC50", "> 5.00"),
]
